# System: S180 tumor
# methodDescription: Biodistribution in tumor-bearing mice
# Type: in vivo
# measurementConditions: 30 min, i.v., mice bearing S180 tumor, n=5, mean ± SD
measuredMetric: Liver (% ID/g)
Number only, in % ID/g; omit the unit.

molecule	Liver, % ID/g
O=C(NC1C(O)OC(CO)C(O)C1O)c1cccc([N+]#[C][99Tc+]([C]#[N+]c2cccc(C(=O)NC3C(O)OC(CO)C(O)C3O)c2)([C]#[N+]c2cccc(C(=O)NC3C(O)OC(CO)C(O)C3O)c2)([C]#[N+]c2cccc(C(=O)NC3C(O)OC(CO)C(O)C3O)c2)([C]#[N+]c2cccc(C(=O)NC3C(O)OC(CO)C(O)C3O)c2)[C]#[N+]c2cccc(C(=O)NC3C(O)OC(CO)C(O)C3O)c2)c1 (stereo not shown) [^99mTc-3-CNBzDG]	1.38
O=C(Cc1ccc(C[N+]#[C][99Tc+]([C]#[N+]Cc2ccc(CC(=O)NC3C(O)OC(CO)C(O)C3O)cc2)([C]#[N+]Cc2ccc(CC(=O)NC3C(O)OC(CO)C(O)C3O)cc2)([C]#[N+]Cc2ccc(CC(=O)NC3C(O)OC(CO)C(O)C3O)cc2)([C]#[N+]Cc2ccc(CC(=O)NC3C(O)OC(CO)C(O)C3O)cc2)[C]#[N+]Cc2ccc(CC(=O)NC3C(O)OC(CO)C(O)C3O)cc2)cc1)NC1C(O)OC(CO)C(O)C1O (stereo not shown) [^99mTc-4-CNMBDG]	3.00
O=C(NC1C(O)OC(CO)C(O)C1O)c1cccc(C[N+]#[C][99Tc+]([C]#[N+]Cc2cccc(C(=O)NC3C(O)OC(CO)C(O)C3O)c2)([C]#[N+]Cc2cccc(C(=O)NC3C(O)OC(CO)C(O)C3O)c2)([C]#[N+]Cc2cccc(C(=O)NC3C(O)OC(CO)C(O)C3O)c2)([C]#[N+]Cc2cccc(C(=O)NC3C(O)OC(CO)C(O)C3O)c2)[C]#[N+]Cc2cccc(C(=O)NC3C(O)OC(CO)C(O)C3O)c2)c1 (stereo not shown) [^99mTc-3-CNPEDG]	1.30

// next entry
response.value for O=C(NC1C(O)OC(CO)C(O)C1O)c1ccc(CC[N+]#[C][99Tc+]([C]#[N+]CCc2ccc(C(=O)NC3C(O)OC(CO)C(O)C3O)cc2)([C]#[N+]CCc2ccc(C(=O)NC3C(O)OC(CO)C(O)C3O)cc2)([C]#[N+]CCc2ccc(C(=O)NC3C(O)OC(CO)C(O)C3O)cc2)([C]#[N+]CCc2ccc(C(=O)NC3C(O)OC(CO)C(O)C3O)cc2)[C]#[N+]CCc2ccc(C(=O)NC3C(O)OC(CO)C(O)C3O)cc2)cc1 (stereo not shown) [^99mTc-4-CNPeDG] (field: Liver) = 0.95

----------
# System: S180 tumor
# methodDescription: Biodistribution in tumor-bearing mice
# Assay type: in vivo
# measurementConditions: 120 min, i.v., mice bearing S180 tumor, mean ± SD
Heart values for the compounds below.
Field format: number, assumed % ID/g, no unit text.

Worked set:
compound	endpointResult
O=C(Cc1ccc(C[N+]#[C][99Tc+]([C]#[N+]Cc2ccc(CC(=O)NC3C(O)OC(CO)C(O)C3O)cc2)([C]#[N+]Cc2ccc(CC(=O)NC3C(O)OC(CO)C(O)C3O)cc2)([C]#[N+]Cc2ccc(CC(=O)NC3C(O)OC(CO)C(O)C3O)cc2)([C]#[N+]Cc2ccc(CC(=O)NC3C(O)OC(CO)C(O)C3O)cc2)[C]#[N+]Cc2ccc(CC(=O)NC3C(O)OC(CO)C(O)C3O)cc2)cc1)NC1C(O)OC(CO)C(O)C1O (stereo not shown) [^99mTc-4-CNMBDG]	1.31
O=C(NC1C(O)OC(CO)C(O)C1O)c1cccc(C[N+]#[C][99Tc+]([C]#[N+]Cc2cccc(C(=O)NC3C(O)OC(CO)C(O)C3O)c2)([C]#[N+]Cc2cccc(C(=O)NC3C(O)OC(CO)C(O)C3O)c2)([C]#[N+]Cc2cccc(C(=O)NC3C(O)OC(CO)C(O)C3O)c2)([C]#[N+]Cc2cccc(C(=O)NC3C(O)OC(CO)C(O)C3O)c2)[C]#[N+]Cc2cccc(C(=O)NC3C(O)OC(CO)C(O)C3O)c2)c1 (stereo not shown) [^99mTc-3-CNPEDG]	0.23
O=C(NC1C(O)OC(CO)C(O)C1O)c1cccc([N+]#[C][99Tc+]([C]#[N+]c2cccc(C(=O)NC3C(O)OC(CO)C(O)C3O)c2)([C]#[N+]c2cccc(C(=O)NC3C(O)OC(CO)C(O)C3O)c2)([C]#[N+]c2cccc(C(=O)NC3C(O)OC(CO)C(O)C3O)c2)([C]#[N+]c2cccc(C(=O)NC3C(O)OC(CO)C(O)C3O)c2)[C]#[N+]c2cccc(C(=O)NC3C(O)OC(CO)C(O)C3O)c2)c1 (stereo not shown) [^99mTc-3-CNBzDG]	0.54

Now examine the next entry.
Note to self: Heart recorded for O=C(NC1C(O)OC(CO)C(O)C1O)c1ccc(CC[N+]#[C][99Tc+]([C]#[N+]CCc2ccc(C(=O)NC3C(O)OC(CO)C(O)C3O)cc2)([C]#[N+]CCc2ccc(C(=O)NC3C(O)OC(CO)C(O)C3O)cc2)([C]#[N+]CCc2ccc(C(=O)NC3C(O)OC(CO)C(O)C3O)cc2)([C]#[N+]CCc2ccc(C(=O)NC3C(O)OC(CO)C(O)C3O)cc2)[C]#[N+]CCc2ccc(C(=O)NC3C(O)OC(CO)C(O)C3O)cc2)cc1 (stereo not shown) [^99mTc-4-CNPeDG] was 0.15

----------
# Tested on: S180 tumor
# methodDescription: Biodistribution in tumor-bearing mice
# Format: in vivo
# measurementConditions: 30 min, i.v., mice bearing S180 tumor, n=5, mean ± SD
measuredMetric: Muscle

compound	Muscle
O=C(NC1C(O)OC(CO)C(O)C1O)c1cccc([N+]#[C][99Tc+]([C]#[N+]c2cccc(C(=O)NC3C(O)OC(CO)C(O)C3O)c2)([C]#[N+]c2cccc(C(=O)NC3C(O)OC(CO)C(O)C3O)c2)([C]#[N+]c2cccc(C(=O)NC3C(O)OC(CO)C(O)C3O)c2)([C]#[N+]c2cccc(C(=O)NC3C(O)OC(CO)C(O)C3O)c2)[C]#[N+]c2cccc(C(=O)NC3C(O)OC(CO)C(O)C3O)c2)c1 (stereo not shown) [^99mTc-3-CNBzDG]	0.77 ± 0.06 % ID/g
O=C(NC1C(O)OC(CO)C(O)C1O)c1cccc(C[N+]#[C][99Tc+]([C]#[N+]Cc2cccc(C(=O)NC3C(O)OC(CO)C(O)C3O)c2)([C]#[N+]Cc2cccc(C(=O)NC3C(O)OC(CO)C(O)C3O)c2)([C]#[N+]Cc2cccc(C(=O)NC3C(O)OC(CO)C(O)C3O)c2)([C]#[N+]Cc2cccc(C(=O)NC3C(O)OC(CO)C(O)C3O)c2)[C]#[N+]Cc2cccc(C(=O)NC3C(O)OC(CO)C(O)C3O)c2)c1 (stereo not shown) [^99mTc-3-CNPEDG]	0.82 ± 0.24 % ID/g
O=C(NC1C(O)OC(CO)C(O)C1O)c1ccc(CC[N+]#[C][99Tc+]([C]#[N+]CCc2ccc(C(=O)NC3C(O)OC(CO)C(O)C3O)cc2)([C]#[N+]CCc2ccc(C(=O)NC3C(O)OC(CO)C(O)C3O)cc2)([C]#[N+]CCc2ccc(C(=O)NC3C(O)OC(CO)C(O)C3O)cc2)([C]#[N+]CCc2ccc(C(=O)NC3C(O)OC(CO)C(O)C3O)cc2)[C]#[N+]CCc2ccc(C(=O)NC3C(O)OC(CO)C(O)C3O)cc2)cc1 (stereo not shown) [^99mTc-4-CNPeDG]	0.68 ± 0.05 % ID/g

Please look at the following compound next.
The reported Muscle of the compound O=C(Cc1ccc(C[N+]#[C][99Tc+]([C]#[N+]Cc2ccc(CC(=O)NC3C(O)OC(CO)C(O)C3O)cc2)([C]#[N+]Cc2ccc(CC(=O)NC3C(O)OC(CO)C(O)C3O)cc2)([C]#[N+]Cc2ccc(CC(=O)NC3C(O)OC(CO)C(O)C3O)cc2)([C]#[N+]Cc2ccc(CC(=O)NC3C(O)OC(CO)C(O)C3O)cc2)[C]#[N+]Cc2ccc(CC(=O)NC3C(O)OC(CO)C(O)C3O)cc2)cc1)NC1C(O)OC(CO)C(O)C1O (stereo not shown) [^99mTc-4-CNMBDG] was 1.96 ± 0.50 % ID/g

----------
# Tested on: S180 tumor
# methodDescription: Biodistribution in tumor-bearing mice
# Format: in vivo
# measurementConditions: 120 min, i.v., mice bearing S180 tumor, mean ± SD
Listed here: items and their measured Liver.
Reply numerically in % ID/g, unit not repeated.

Consider the worked cases shown below.
molecule	Liver, % ID/g
O=C(NC1C(O)OC(CO)C(O)C1O)c1cccc([N+]#[C][99Tc+]([C]#[N+]c2cccc(C(=O)NC3C(O)OC(CO)C(O)C3O)c2)([C]#[N+]c2cccc(C(=O)NC3C(O)OC(CO)C(O)C3O)c2)([C]#[N+]c2cccc(C(=O)NC3C(O)OC(CO)C(O)C3O)c2)([C]#[N+]c2cccc(C(=O)NC3C(O)OC(CO)C(O)C3O)c2)[C]#[N+]c2cccc(C(=O)NC3C(O)OC(CO)C(O)C3O)c2)c1 (stereo not drawn) [^99mTc-3-CNBzDG]	0.89
O=C(NC1C(O)OC(CO)C(O)C1O)c1cccc(C[N+]#[C][99Tc+]([C]#[N+]Cc2cccc(C(=O)NC3C(O)OC(CO)C(O)C3O)c2)([C]#[N+]Cc2cccc(C(=O)NC3C(O)OC(CO)C(O)C3O)c2)([C]#[N+]Cc2cccc(C(=O)NC3C(O)OC(CO)C(O)C3O)c2)([C]#[N+]Cc2cccc(C(=O)NC3C(O)OC(CO)C(O)C3O)c2)[C]#[N+]Cc2cccc(C(=O)NC3C(O)OC(CO)C(O)C3O)c2)c1 (stereo not drawn) [^99mTc-3-CNPEDG]	0.68

Could you now look at the following molecule, please?
Lab book: Liver of O=C(NC1C(O)OC(CO)C(O)C1O)c1ccc(CC[N+]#[C][99Tc+]([C]#[N+]CCc2ccc(C(=O)NC3C(O)OC(CO)C(O)C3O)cc2)([C]#[N+]CCc2ccc(C(=O)NC3C(O)OC(CO)C(O)C3O)cc2)([C]#[N+]CCc2ccc(C(=O)NC3C(O)OC(CO)C(O)C3O)cc2)([C]#[N+]CCc2ccc(C(=O)NC3C(O)OC(CO)C(O)C3O)cc2)[C]#[N+]CCc2ccc(C(=O)NC3C(O)OC(CO)C(O)C3O)cc2)cc1 (stereo not drawn) [^99mTc-4-CNPeDG] noted as 0.38
